- Assay text: Inhibition of HIV1 Protease M1 variant by FRET based assay
- Set-up: species or system Human immunodeficiency virus 1
Friendly reminder: Ki below 90 nM is yes (1), at or above is no (0).

Compound	Class name
COC(=O)N[C@H](C(=O)N[C@@H](Cc1ccccc1)[C@@H](O)CN(Cc1ccc(-c2ccccn2)cc1)NC(=O)[C@@H](NC(=O)OC)C(C)(C)C)C(C)(C)C [ATAZANAVIR]	yes (1)

Prompt: # strict comparison: is reported Ki < 90 nM? input = "CC(C)CN(C[C@@H](O)[C@H](Cc1ccccc1)NC(=O)O[C@H]1CCOC1)S(=O)(=O)c1ccc(N)cc1"
Response: yes (1)

Prompt: Regarding "Cc1cccc(C)c1OCC(=O)N[C@@H](Cc1ccccc1)[C@@H](O)C[C@H](Cc1ccccc1)NC(=O)[C@@H]1CN(c2ccccc2)C(=O)O1" , kindly confirm whether its Ki is beneath 90 nM.
Response: no (0)

Prompt: # check: Ki < 90 nM for "COC(=O)N[C@H](C(=O)NN(CC(C)C)C[C@H](O)[C@H](Cc1ccccc1)NC(=O)[C@@H]1CN(c2ccccc2)C(=O)O1)C(C)(C)C"
Response: no (0)

Origin of values: ChEMBL document CHEMBL1148771
